In this section we review reported MIC values for a set of molecules.
system: Staphylococcus aureus; assay: Antimicrobial activity against methicillin-resistant Staphylococcus aureus; format: functional
Value expressed in µg/mL; do not type the unit.

smiles_text=Cc1c(O)cc2c(c1O)C(=O)[C@H]1C[C@@H](Cl)C(C)(C)O[C@@]1(C[C@H]1C(C)(C)[C@@H](Cl)CC[C@]1(C)O)C2=O quantity=MIC observed_value=1.95

Request: Quick one: MIC of C=C1CC[C@H](Cl)C(C)(C)[C@@H]1C[C@@]12OC(C)(C)[C@H](Cl)C=C1C(=O)c1c(cc(O)c(C)c1O)C2=O ?
Result: 1.95

Request: Quick one: MIC of Cc1c(O)cc2c(c1O)C(=O)C1=C[C@@H](Cl)C(C)(C)O[C@@]1(C[C@H]1C(C)(C)[C@@H](Cl)CC[C@]1(C)O)C2=O ?
Result: 15.6

Request: Quick one: MIC of C=C1CC[C@H](Cl)C(C)(C)[C@@H]1C[C@@]12OC(C)(C)[C@H](Cl)C[C@]1(Cl)C(=O)c1c(cc(O)c(C)c1O)C2=O ?
Result: 1.9
